System: L. donovani Ld39 promastigotes
Test: Anti-promastigote activity (MTS assay), L. donovani Ld39
Type: cell-based
Conditions: 72 hours
Where a name gives a salt, the structure may show the parent alone.
Observable: IC50
Answer format: number, then unit.

Worked examples, 3 compounds total:
Compound	IC50
O=c1cc(-c2ccc(OCCN3CCN(Cc4ccncc4)CC3)cc2)oc2ccccc12 [FM01.HCl]	1300 nM
Cl.O=c1cc(-c2ccc(OCCC3CCN(Cc4ccncc4)CC3)cc2)oc2ccccc12 [FM05.HCl]	1200 nM
C[C@@H]1[C@H](O)[C@@H](C)/C=C/C=C/C=C/C=C/C=C/C=C/C=C/[C@H](O[C@@H]2O[C@H](C)[C@@H](O)[C@H](N)[C@@H]2O)C[C@@H]2O[C@](O)(C[C@@H](O)C[C@@H](O)[C@H](O)CC[C@@H](O)C[C@@H](O)CC(=O)O[C@H]1C)C[C@H](O)[C@H]2C(=O)O [Amphotericin B]	95 nM

Missing value: IC50, L. donovani Ld39 promastigotes, entry O=c1cc(-c2ccc(OCCOCCN(Cc3ccccn3)Cc3ccccn3)cc2)oc2ccccc12 [FM09.HCl] . Fill in?
500 nM
